Reference for the values: patent US8013137B2

# Tested on: GD4K-βNA
# Assay Details: EP activity and kinetic study with specific substrate GD4K-βNA
# Assay type: biochemical
# Stated Conditions: substrate GD4K-βna
# Protocol: (A) Active recombinant EP proteases were assayed using a GD4K-βNA (SEQ ID NO: 6) substrate as a substrate. Bovine (Nvg), bovine EP protease available from Novagen; Bovine (Neb), bovine EP protease available from NEB. […] (C) Active EP proteases were analyzed by gelatin zymography. […] (A) The purity of purified recombinant Medaka EP-1 and EP-2 protease was assessed by SDS-PAGE. […] (B) The enzyme activities of EP proteases were determined at various pHs using GD4K-βNA (SEQ ID NO: 6) as a substrate. […]

- Molecule: "P193E: Medaka EP-1 protease mutant, substitution P193E (protein) CGQRQVYNSKENNGVPRVVGGVNAEKGAWPWMVSLHWRGRHGCGASLIGRDWLLTAAHCVYGKNTHLQYWSAVLGLHAQSSMNSQEVQIRQVDRIIINKNYNRRTKEADIAMMHLQQPVNFTEWVLPVCLASEDQHFPAGRRCFIAGWGRDAEGGSLPDILQEAEVPLVDQDECQRLLPEYTFTSSMLCAGYEEGGVDSCQGDSGGPLMCLEDARWTLIGVTSFGVGCGRPERPGAYARVSAFTSWIAETRRSSFSDLD"
  Km, µM: 400
- Molecule: "Porcine: active recombinant enzyme of the porcine EP serine protease domain (Ile800 to His1034) (protein) IVGGNDSREGAWPWVVALYYNGQLLCGASLVSRDWLVSAAHCVYGRNLEPSKWKAILGLHMTSNLTSPQIVTRLIDEIVINPHYNRRRKDSDIAMMHLEFKVNYTDYIQPICLPEENQVFPPGRICSIAGWGKVIYQGSPADILQEADVPLLSNEKCQQQMPEYNITENMMCAGYEEGGIDSCQGDSGGPLMCLENNRWLLAGVTSFGYQCALPNRPGVYARVPKFTEWIQSFLH"
  Km, µM: 400
